Tested on: Escherichia coli TOP10;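 further: peptides expressed intracellularly from a pBAD plasmid library in pooled LB shake-flask culture, induced with 0.3% L-arabinose, DNA abundance read by NGS, three biological replicates, DESeq2 with apeglm shrinkage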
Assay: shrunken log2 fold change of peptide-encoding DNA abundance (4.5 h post-induction vs induction); higher = less antimicrobial activity (less host growth inhibition)
Conditions: time post-induction: 4.5 h; library: site-saturation at positions 5, 18, 19, 20
Use Met when the recorded shrunken log2 fold change is no lower than 0.08; use Not met when it is lower.

Record excerpt, results attached:
RRIRHRPPRLPRPRPRPEYGPRP; Not met
RRIRLRPPRLPRPRPRPRQTPRP; Met
RRIRLRPPRLPRPRPRPTSSPRP; Not met
RRIRVRPPRLPRPRPRPQVGPRP; Met

Next up:
[ask] Has `RRIRNRPPRLPRPRPRPQRGPRP` a recorded shrunken log2 fold change greater than or equal to 0.08?
[reply] Met
